# target entity: MAO-A (Rattus norvegicus, UniProt P21396)
# Construct: purchased Eurofins Cerep (SafetyScreen44), recognised from the panel format
# Sequence (P21396 1-526): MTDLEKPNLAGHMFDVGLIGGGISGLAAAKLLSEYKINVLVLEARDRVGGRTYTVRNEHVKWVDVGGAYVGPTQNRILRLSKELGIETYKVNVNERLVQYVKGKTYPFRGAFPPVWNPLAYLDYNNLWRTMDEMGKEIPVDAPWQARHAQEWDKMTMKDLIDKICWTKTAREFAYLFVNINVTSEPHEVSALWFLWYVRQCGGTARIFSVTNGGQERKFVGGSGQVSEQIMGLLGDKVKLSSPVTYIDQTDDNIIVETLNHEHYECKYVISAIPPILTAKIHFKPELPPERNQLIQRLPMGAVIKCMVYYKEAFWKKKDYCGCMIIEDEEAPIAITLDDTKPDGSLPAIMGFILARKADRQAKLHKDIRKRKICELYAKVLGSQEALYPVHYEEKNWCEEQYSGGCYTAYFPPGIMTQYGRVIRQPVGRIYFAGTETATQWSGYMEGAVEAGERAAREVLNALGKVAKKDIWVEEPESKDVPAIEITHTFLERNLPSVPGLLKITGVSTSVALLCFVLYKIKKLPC
# measurement protocol: In vitro CEREP profiling, MAO-A (antagonist radioligand)
# Assay type: binding
# measurement setup: test compound concentration 10 uM
reported metric: perc_inhibition (% inhibition of the binding of a ligand specific for each target) (%)

compound	units text	reading
CC(C)[C@H](Nc1ncnc2[nH]c(-c3cnn(C)c3C#N)cc12)c1ccc2c(n1)OCCO2	%	4
CC(C)[C@@H](Nc1ncnc2[nH]c(-c3cnn(C)c3C#N)cc12)c1ccc2c(n1)OCCO2	%	8
C[C@H](C(=O)O)[C@@H](NC(=O)c1ncnc2[nH]ccc12)c1ccc(Br)cc1	%	-1

====

The following compounds are listed with their measured perc_inhibition (% inhibition of the binding of a ligand specific for each target) values.
# target entity: norepinephrine transporter (h) (Homo sapiens, UniProt P23975)
# Construct: purchased Eurofins Cerep (SafetyScreen44), recognised from the panel format
# Sequence (P23975 whole entry): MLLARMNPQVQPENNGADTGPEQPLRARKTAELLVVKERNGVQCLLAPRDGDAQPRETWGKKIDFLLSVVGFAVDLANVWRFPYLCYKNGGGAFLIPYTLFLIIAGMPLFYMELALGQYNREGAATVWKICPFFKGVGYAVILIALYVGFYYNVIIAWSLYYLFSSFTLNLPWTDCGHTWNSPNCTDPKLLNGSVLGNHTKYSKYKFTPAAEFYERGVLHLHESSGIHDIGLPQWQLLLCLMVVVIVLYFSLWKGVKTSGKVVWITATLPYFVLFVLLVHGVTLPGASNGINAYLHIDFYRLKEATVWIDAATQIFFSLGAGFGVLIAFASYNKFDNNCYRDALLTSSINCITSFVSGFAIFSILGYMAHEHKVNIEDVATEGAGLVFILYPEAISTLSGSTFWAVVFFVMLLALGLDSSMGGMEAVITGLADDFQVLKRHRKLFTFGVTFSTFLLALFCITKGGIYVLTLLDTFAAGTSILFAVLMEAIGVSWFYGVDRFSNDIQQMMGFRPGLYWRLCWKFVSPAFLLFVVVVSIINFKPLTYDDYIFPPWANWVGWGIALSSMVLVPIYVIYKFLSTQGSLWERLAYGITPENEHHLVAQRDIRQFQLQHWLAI
# measurement protocol: In vitro CEREP profiling, norepinephrine transporter (h) (antagonist radioligand)
# Format: binding
# measurement setup: test compound concentration 10 uM
reported metric: perc_inhibition (% inhibition of the binding of a ligand specific for each target) (%)

compound	reading
CC(C)[C@@H](Nc1ncnc2[nH]c(-c3cnn(C)c3C#N)cc12)c1ccc2c(n1)OCCO2	4
CNCc1cc(-c2cc3c(N[C@@H](c4ccc5c(c4)S(=O)(=O)CCC5)C(C)C)ncnc3[nH]2)co1	39
COc1ccc([C@H](Cc2nnn[nH]2)NC(=O)c2ncnc3[nH]ccc23)cc1	-5
CC(C)[C@H](Nc1ncnc2[nH]ccc12)c1ccc2c(c1)S(=O)(=O)CCC2	-3
CC(C)[C@H](Nc1ncnc2[nH]c(-c3cnn(C)c3C#N)cc12)c1ccc2c(n1)OCCO2	9
C[C@H](C(=O)O)[C@@H](NC(=O)c1ncnc2[nH]ccc12)c1ccc(Br)cc1	-6
Cn1ncc(-c2cc3c(N[C@@H](c4ccc5c(n4)OCCO5)C(C)(C)C)ncnc3[nH]2)c1C#N	27

====

# measurement protocol: In vitro human hepatocyte stability
# Assay type: in vitro ADME
The following compounds are listed with their measured t_half values.
reported metric: t_half (min)

compound	reported metric	units text	comparison symbol	reading
CC(C)C(Nc1ncnc2[nH]c(C(=O)NC3CCN(C)C3)cc12)c1ccc2c(c1)S(=O)(=O)CCC2 (centres unmarked)	t_half	min	>	231.0
CC(C)[C@H](Nc1ncnc2[nH]ccc12)c1ccc2c(c1)S(=O)(=O)CCC2	t_half	min	=	24.8
CNCc1cc(-c2cc3c(N[C@@H](c4ccc5c(c4)S(=O)(=O)CCC5)C(C)C)ncnc3[nH]2)co1	t_half	min	=	48.9
COc1ccc([C@H](Cc2nnn[nH]2)NC(=O)c2ncnc3[nH]ccc23)cc1	t_half	min	>	231.0
Cn1ncc(-c2cc3c(N[C@@H](c4ccc5c(n4)OCCO5)C(C)(C)C)ncnc3[nH]2)c1C#N	t_half	min	=	4.04
C[C@H](C(=O)O)[C@@H](NC(=O)c1ncnc2[nH]ccc12)c1ccc(Br)cc1	t_half	min	>	231.0
CC(C)[C@@H](Nc1ncnc2[nH]c(-c3cnn(C)c3C#N)cc12)c1ccc2c(n1)OCCO2	t_half	min	=	3.81
CC(C)[C@H](Nc1ncnc2[nH]c(-c3cnn(C)c3C#N)cc12)c1ccc2c(n1)OCCO2	t_half	min	=	24.2
